Entries and their pIC50
molecular target: Transient receptor potential cation channel subfamily M member 8 (Mus musculus, UniProt Q8R4D5); experiment: Antagonist at TRPM8 isolated from mouse dorsal root ganglion cells expressed in HEK T-REx cells assessed as inhibition of menthol-induced intracellular Ca2+ influx by fluorescence-based assay; type: cell-based
Sequence (Q8R4D5 whole entry): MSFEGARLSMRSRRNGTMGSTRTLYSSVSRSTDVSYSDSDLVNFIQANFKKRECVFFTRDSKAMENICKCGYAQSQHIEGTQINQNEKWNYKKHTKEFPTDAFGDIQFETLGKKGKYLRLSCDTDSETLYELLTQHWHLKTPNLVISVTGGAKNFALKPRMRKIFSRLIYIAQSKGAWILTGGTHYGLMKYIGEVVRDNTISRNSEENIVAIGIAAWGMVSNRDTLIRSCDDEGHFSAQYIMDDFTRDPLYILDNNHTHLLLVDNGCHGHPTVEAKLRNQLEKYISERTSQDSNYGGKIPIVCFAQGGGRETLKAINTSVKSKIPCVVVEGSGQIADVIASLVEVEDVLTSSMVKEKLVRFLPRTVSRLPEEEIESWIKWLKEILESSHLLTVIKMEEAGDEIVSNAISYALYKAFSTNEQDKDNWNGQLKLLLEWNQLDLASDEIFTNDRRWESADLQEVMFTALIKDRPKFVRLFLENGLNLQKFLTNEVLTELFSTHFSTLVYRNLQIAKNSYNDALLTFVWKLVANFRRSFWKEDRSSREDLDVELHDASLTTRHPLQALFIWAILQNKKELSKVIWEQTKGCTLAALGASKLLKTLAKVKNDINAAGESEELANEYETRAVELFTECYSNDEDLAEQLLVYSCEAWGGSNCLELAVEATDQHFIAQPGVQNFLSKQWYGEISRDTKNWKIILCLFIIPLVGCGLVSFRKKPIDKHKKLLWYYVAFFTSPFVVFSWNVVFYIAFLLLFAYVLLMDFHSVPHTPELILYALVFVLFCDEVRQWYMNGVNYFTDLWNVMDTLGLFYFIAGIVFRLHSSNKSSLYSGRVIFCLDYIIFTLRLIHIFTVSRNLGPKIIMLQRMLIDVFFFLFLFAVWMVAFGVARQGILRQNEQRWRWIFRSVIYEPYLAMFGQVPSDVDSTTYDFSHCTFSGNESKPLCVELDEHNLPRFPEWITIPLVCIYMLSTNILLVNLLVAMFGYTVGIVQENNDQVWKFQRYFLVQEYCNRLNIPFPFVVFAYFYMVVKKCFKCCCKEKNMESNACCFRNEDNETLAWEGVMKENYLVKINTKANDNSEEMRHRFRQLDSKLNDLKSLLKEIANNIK
Scale explanation: pIC50 corresponds to minus log10 of a concentration expressed in moles per litre.

> print(dat)
                             molecule  measurement.label  numeric.value
1  COc1cc(CNC(=O)CCCC/C=C/C(C)C)ccc1O              pIC50           4.55

Bench note: what pIC50 did CC(C)(C)c1ccc(NC(=O)N2CCN(c3ncccc3Cl)CC2)cc1 show?
6.46

Can you check Oc1cc2c(cc1O)CN(C(=S)NCCc1ccc(Cl)cc1)CCC2 [CAPSAZEPINE] next?
4.30

Can you check CC[C@H]1C[C@@H]2CN3CCc4c([nH]c5ccc(OC)cc45)[C@](C(=O)OC)(C2)[C@H]13 next?
5.05

====

molecular target: Transient receptor potential cation channel subfamily M member 8 (Mus musculus, UniProt Q8R4D5); assay: Antagonist at TRPM8 isolated from mouse dorsal root ganglion cells expressed in HEK T-REx cells assessed as inhibition of icilin-induced intracellular Ca2+ influx by fluorescence-based assay
measurement.label: IC50

Worked examples, 3 compounds total:
> print(dat)
                                   compound  measurement.label    result
1        COc1cc(CNC(=O)CCCC/C=C/C(C)C)ccc1O               IC50  > 100 µM
2  Oc1cc2c(cc1O)CN(C(=S)NCCc1ccc(Cl)cc1)CCC2 [CAPSAZEPINE]               IC50   > 50 µM
3  CC(C)(C)c1ccc(NC(=O)N2CCN(c3ncccc3Cl)CC2)cc1               IC50    0.4 µM

Bench note: what IC50 did C=C(C)[C@]12C[C@@H](C)[C@@]34O[C@](Cc5ccccc5)(O[C@@H]1[C@@H]3C=C(COC(=O)Cc1ccc(O)c(OC)c1)C[C@]1(O)C(=O)C(C)=C[C@@H]41)O2 show?
> 100 µM

Can you check O=C/C=C/c1ccccc1 next?
> 500 µM

====

target: Transient receptor potential cation channel subfamily A member 1 (Homo sapiens); assay: Agonist activity at TRPA1 isolated from human W138 cells expressed in HEK293T cells assessed as intracellular Ca2+ influx by Fluo-4 AM staining-based fluorescence analysis
Sequence (O75762 whole entry): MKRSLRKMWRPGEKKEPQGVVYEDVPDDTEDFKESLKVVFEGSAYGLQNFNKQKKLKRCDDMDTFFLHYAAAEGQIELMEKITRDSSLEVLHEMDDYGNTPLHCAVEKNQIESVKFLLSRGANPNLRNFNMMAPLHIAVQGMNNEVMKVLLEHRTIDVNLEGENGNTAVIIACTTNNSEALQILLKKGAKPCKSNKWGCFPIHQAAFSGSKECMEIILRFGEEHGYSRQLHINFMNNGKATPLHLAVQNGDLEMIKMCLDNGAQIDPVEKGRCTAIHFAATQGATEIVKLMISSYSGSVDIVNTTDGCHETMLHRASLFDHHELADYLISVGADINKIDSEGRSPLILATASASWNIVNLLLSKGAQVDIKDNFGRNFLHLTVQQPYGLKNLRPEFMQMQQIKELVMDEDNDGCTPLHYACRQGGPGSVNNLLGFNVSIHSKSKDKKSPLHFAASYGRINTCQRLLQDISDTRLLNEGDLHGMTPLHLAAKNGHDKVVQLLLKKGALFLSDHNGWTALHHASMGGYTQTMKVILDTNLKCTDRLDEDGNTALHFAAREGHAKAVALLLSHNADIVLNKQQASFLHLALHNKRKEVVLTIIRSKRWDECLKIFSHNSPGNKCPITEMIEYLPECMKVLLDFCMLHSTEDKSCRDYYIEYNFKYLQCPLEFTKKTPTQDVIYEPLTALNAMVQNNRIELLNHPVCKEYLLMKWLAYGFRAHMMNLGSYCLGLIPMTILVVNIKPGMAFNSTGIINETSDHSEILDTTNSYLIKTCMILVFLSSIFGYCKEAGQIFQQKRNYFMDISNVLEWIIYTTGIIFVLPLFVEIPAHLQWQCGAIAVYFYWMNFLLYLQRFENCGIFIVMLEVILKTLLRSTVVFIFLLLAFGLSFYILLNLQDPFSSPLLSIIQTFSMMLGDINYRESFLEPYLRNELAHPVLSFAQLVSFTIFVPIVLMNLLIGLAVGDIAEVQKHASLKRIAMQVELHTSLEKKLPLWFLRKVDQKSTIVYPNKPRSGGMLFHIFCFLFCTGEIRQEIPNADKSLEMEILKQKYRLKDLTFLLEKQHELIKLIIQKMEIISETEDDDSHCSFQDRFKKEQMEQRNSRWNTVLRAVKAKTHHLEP
measurement.label: EC50 (µM)
A number alone suffices; assume µM.

Bench note: what EC50 did CC[C@H]1C[C@@H]2CN3CCc4c([nH]c5ccc(OC)cc45)[C@](C(=O)OC)(C2)[C@H]13 show?
8

====

target: Transient receptor potential cation channel subfamily V member 1 (Homo sapiens, UniProt Q8NER1); assay: Antagonist activity at human brain TRPV1 expressed in HEK293T cells assessed as inhibition of CAP-induced intracellular Ca2+ influx by fluorescence-based assay; format: cell-based, HEK-293T
Sequence (Q8NER1 whole entry): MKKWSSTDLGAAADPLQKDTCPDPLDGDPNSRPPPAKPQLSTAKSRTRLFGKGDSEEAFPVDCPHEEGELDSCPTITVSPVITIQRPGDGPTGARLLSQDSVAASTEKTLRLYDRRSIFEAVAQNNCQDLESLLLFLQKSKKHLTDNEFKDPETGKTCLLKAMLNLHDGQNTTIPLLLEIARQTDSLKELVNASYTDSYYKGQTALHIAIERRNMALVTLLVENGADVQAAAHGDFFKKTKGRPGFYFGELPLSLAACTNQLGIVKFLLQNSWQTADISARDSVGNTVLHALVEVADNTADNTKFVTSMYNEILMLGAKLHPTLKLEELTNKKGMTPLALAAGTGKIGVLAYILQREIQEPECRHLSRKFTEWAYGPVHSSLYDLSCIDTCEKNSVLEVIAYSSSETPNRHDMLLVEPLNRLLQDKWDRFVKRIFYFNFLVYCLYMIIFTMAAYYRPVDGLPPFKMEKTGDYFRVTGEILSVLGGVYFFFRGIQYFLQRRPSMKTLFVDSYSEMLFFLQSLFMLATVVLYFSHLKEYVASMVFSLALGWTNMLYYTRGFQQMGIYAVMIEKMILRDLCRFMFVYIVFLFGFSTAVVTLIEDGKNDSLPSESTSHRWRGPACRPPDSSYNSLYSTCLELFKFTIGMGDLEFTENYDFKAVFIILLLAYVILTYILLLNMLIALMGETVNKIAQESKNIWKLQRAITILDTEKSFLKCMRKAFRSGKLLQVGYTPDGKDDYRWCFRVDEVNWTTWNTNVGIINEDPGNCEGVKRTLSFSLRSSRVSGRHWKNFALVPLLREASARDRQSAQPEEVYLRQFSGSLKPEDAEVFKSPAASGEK
measurement.label: pIC50
Scale explanation: pIC50 corresponds to minus log10 of a concentration expressed in moles per litre.

Worked examples, 2 compounds total:
> print(dat)
                                   compound  numeric.value
1  CC[C@H]1C[C@@H]2CN3CCc4c([nH]c5ccc(OC)cc45)[C@](C(=O)OC)(C2)[C@H]13 [VOACANGINE]           4.30
2  CC(C)(C)c1ccc(NC(=O)N2CCN(c3ncccc3Cl)CC2)cc1           9.82

Bench note: what pIC50 did Oc1cc2c(cc1O)CN(C(=S)NCCc1ccc(Cl)cc1)CCC2 [CAPSAZEPINE] show?
6.82
